- Test system: Triticum aestivum (TRZAS)
- assay.remarks: Pre-emergence effects on crop plants, section D (Table D2)
- Assay type: in vivo
- run.conditions: application rate 80 g/ha; visual grading after ca. 3 weeks
pre-emergence activity against TRZAS in % (crop plant damage): recorded values
endpoint: pre-emergence activity against TRZAS in % (crop plant damage) (%)

compound	observed.value
COC(=O)CCC(=O)N1CSc2cc(Cl)c(-c3ccccc3F)nc21	20
Cc1cc2c(nc1-c1ccccc1F)N(S(=O)(=O)Cc1ccc(F)cc1)CS2	10
CC(C)C(=O)N1C[S+]([O-])c2cc(Br)c(-c3ccccc3)nc21 (centres unmarked)	10
Cc1ccccc1-c1nc2c(cc1C)SCN2C(=O)C1(C)CC(Cl)=NO1 (centres unmarked)	0
Cc1cc2c(nc1-c1ccccc1Cl)NCS2	20
